Attribution: patent US20130195872A1

# assay.system: cynomolgus IL-17A/IL-17F heterodimer (cynomolgus)
# assay.explanation: cell-based or functional assay
outcome.measure: IC50, IL-6 secretion by MEF cells, cytokine at 25 ng/ml (nM)
Please reply with the bare figure in nM and do not write the unit itself.

Exercise: Give me measured IC50, IL-6 secretion by MEF cells, cytokine at 25 ng/ml, please, for this binder: 30D12 antibody (antibody, IgG1, V domains shown, Fully human monoclonal antibody; also called 30D12 IgG1) VH: QVQLVQSGAEVKKPGASVKVSCKASGYTFTSYDINWVRQATGQGLEWMGWMNPDSGVIRYAQKFQGRVTMTRNTSISTAYMELNSLRSEDTAVYYCAREWFGELPSYYFYSGMDVWGQGTTVTVSS VL: EIVLTQSPATLSLSPGERATLSCRASQSVSSYLAWYQQKPGQAPRLLIYDASNRATGIPARFSGSGSGTDFTLTISSLEPEDFAVYYCQQRSNWPPTFGPGTKVDIK
Key: 15
